System: Rattus norvegicus
Test: Anti-uterotrophic effects in rats following 3 x 0.1 mg s.c. over 72h.
Format: functional
measured-property: Uterine weight (mg)
Use mg as the unit, but write only the number.

These solved cases illustrate the format of a correct answer.
input-smiles	measured-property	result-unit	number
C/C(=C(/C(=O)c1ccc(O)cc1)c1ccccc1)c1ccccc1	Uterine weight	mg	44.7
Oc1ccc(-c2c(-c3ccccc3)coc2-c2ccccc2)cc1	Uterine weight	mg	42.8
C/C(=C(/C(=O)c1ccc(OCCN2CCCC2)cc1)c1ccccc1)c1ccccc1	Uterine weight	mg	43.1
c1ccc(-c2occ(-c3ccc(OCCN4CCCC4)cc3)c2-c2ccccc2)cc1	Uterine weight	mg	52.1

Challenge: Name the recorded Uterine weight for C/C(=C(\C(=O)c1ccc(OCCN2CCCC2)cc1)c1ccccc1)c1ccccc1 .
Response given: 46.6

Challenge: Any idea what Uterine weight was measured for O=C(/C(=C\c1ccccc1)c1ccccc1)c1ccc(O)cc1 ?
Response given: 70.4

Challenge: Param item = O=C(/C(=C/c1ccccc1)c1ccccc1)c1ccc(O)cc1 ; retrieve measured Uterine weight.
Response given: 78.1

Challenge: Could you share which Uterine weight value was measured for c1ccc(-c2coc(-c3ccccc3)c2-c2ccc(OCCN3CCCC3)cc2)cc1 ?
Response given: 53.9

Challenge: Reported Uterine weight, compound C/C(=C(\C(=O)c1ccc(O)cc1)c1ccccc1)c1ccccc1 : ____
Response given: 47.3

Challenge: Tell me the measured Uterine weight of Oc1ccc(-c2coc(-c3ccccc3)c2-c2ccccc2)cc1 , please.
Response given: 57.6

---

The molecules listed here are annotated with their RBA.
Target: Estrogen receptor (Rattus norvegicus) (UniProt P06211+Q62986)
Test: Relative binding against estrogen receptor of rat uterine cytosol by [2-4-3H] estradiol.
Format: protein assay
Hi! Could you send only the number? It should be in %, unit omitted.

input-smiles	system-tested	RBA / %
c1ccc(-c2coc(-c3ccccc3)c2-c2ccc(OCCN3CCCC3)cc2)cc1	Estrogen receptor (Rattus norvegicus) (UniProt P06211+Q62986)	0.84

Challenge: May I ask what RBA has been recorded for C/C(=C(\C(=O)c1ccc(OCCN2CCCC2)cc1)c1ccccc1)c1ccccc1 ?
Response given: 0.24

Challenge: Field request: RBA | item: O=C(c1ccc(O)cc1)c1c(-c2ccccc2)oc2cc(O)ccc12
Response given: 2.1

Challenge: Query: RBA; subject: Oc1ccc(-c2c(-c3ccccc3)coc2-c2ccccc2)cc1
Response given: 4.5

Challenge: Find the recorded RBA belonging to O=C(/C(=C\c1ccccc1)c1ccccc1)c1ccc(O)cc1 and report it.
Response given: 0.06

---

Recorded Estrogenic effect values for a group of compounds are listed next.
System: Rattus norvegicus
Experiment: Estrogenicity in rats following 3 x 0.1 mg s.c. over 72h.
Format: functional

Consider the following illustrative entries.
input-smiles	Estrogenic effect
C/C(=C(/C(=O)c1ccc(O)cc1)c1ccccc1)c1ccccc1	83%
Oc1ccc(-c2coc(-c3ccccc3)c2-c2ccccc2)cc1	100%
O=C(/C(=C\c1ccccc1)c1ccccc1)c1ccc(O)cc1	33%

Read the next record carefully.
Challenge: Any idea what its Estrogenic effect is? The compound is c1ccc(-c2occ(-c3ccc(OCCN4CCCC4)cc3)c2-c2ccccc2)cc1
Response given: 61%

---

Consider the following compounds and their measured Inhibition readings.
Test system: Rattus norvegicus
Experiment: Inhibition of E2 effects in rats by 1 mg s.c.
Format: functional
Answer in %, number only, no unit symbol.

The cases that follow already have their Inhibition on record.
input-smiles	system-tested	measured-property	number
Cl.O=C(c1ccccc1)c1c(-c2ccc(OCCN3CCCC3)cc2)oc2ccccc12	Rattus norvegicus	Inhibition	58
O=C(c1ccc(O)cc1)c1c(-c2ccc(O)cc2)oc2ccccc12	Rattus norvegicus	Inhibition	0
O=C(c1ccc(O)cc1)c1c(-c2ccccc2)oc2ccccc12	Rattus norvegicus	Inhibition	0
O=C(c1ccccc1)c1c(-c2ccc(O)cc2)oc2cc(O)ccc12	Rattus norvegicus	Inhibition	0
O=C(c1ccc(O)cc1)c1c(-c2ccccc2)oc2cc(O)ccc12	Rattus norvegicus	Inhibition	37
O=C(c1ccc(O)cc1)c1oc2cc(O)ccc2c1-c1ccc(O)cc1	Rattus norvegicus	Inhibition	23

Challenge: What Inhibition value was documented for this compound, O=C(c1ccc(OCCN2CCCC2)cc1)c1c(-c2ccccc2)oc2ccccc12 ?
Response given: 0

Challenge: Consider the compound shown here: Oc1ccc(-c2oc3cc(O)ccc3c2-c2ccc(O)cc2)cc1 What is its recorded Inhibition?
Response given: 30

Challenge: Report Inhibition for O=C(c1ccccc1)c1c(-c2ccc(O)cc2)oc2ccccc12 please.
Response given: 0

Challenge: Recorded Inhibition for Oc1ccc(-c2c(-c3ccccc3)oc3cc(O)ccc23)cc1 , please?
Response given: 0

Challenge: Which measured Inhibition value corresponds to COc1ccc2c(-c3ccc(OCCN4CCCC4)cc3)c(-c3ccccc3)oc2c1 ?
Response given: 0

---

Test system: Rattus norvegicus
Experiment: Estrogenicity in rats following 3 x 0.1 mg s.c. over 72h.
Format: functional
measured-property: Estrogenic effect
Could you give the number and then its unit, please?

Look over these answered cases.
input-smiles	Estrogenic effect
O=C(/C(=C/c1ccccc1)c1ccccc1)c1ccc(O)cc1	68%
Oc1ccc(-c2c(-c3ccccc3)coc2-c2ccccc2)cc1	0%
C/C(=C(/C(=O)c1ccc(OCCN2CCCC2)cc1)c1ccccc1)c1ccccc1	38%
c1ccc(-c2coc(-c3ccccc3)c2-c2ccc(OCCN3CCCC3)cc2)cc1	31%
C/C(=C(\C(=O)c1ccc(OCCN2CCCC2)cc1)c1ccccc1)c1ccccc1	0%

Challenge: What does the data say about its Estrogenic effect? Entry: C/C(=C(\C(=O)c1ccc(O)cc1)c1ccccc1)c1ccccc1
Response given: 0%

---

A collection of molecules and their measured RBA
Biological target: Estrogen receptor (Rattus norvegicus) (UniProt P06211+Q62986)
Experiment: Relative binding against estrogen receptor of rat uterine cytosol by [2-4-3H] estradiol.
Assay type: protein assay
Answer in %, number only, no unit symbol.

Consider the following illustrative entries.
input-smiles	result-unit	RBA
C/C(=C(/C(=O)c1ccc(O)cc1)c1ccccc1)c1ccccc1	%	3.6
O=C(c1ccccc1)c1c(-c2ccc(O)cc2)oc2cc(O)ccc12	%	0.72
COc1ccc2c(-c3ccc(O)cc3)c(-c3ccccc3)oc2c1	%	0.01
O=C(c1ccc(O)cc1)c1c(-c2ccc(O)cc2)oc2ccccc12	%	1.7
O=C(c1ccc(O)cc1)c1c(-c2ccccc2)oc2ccccc12	%	5.3
Oc1ccc(-c2coc(-c3ccccc3)c2-c2ccccc2)cc1	%	3

Challenge: Please give the measured RBA for this molecule: Cl.O=C(c1ccccc1)c1c(-c2ccc(OCCN3CCCC3)cc2)oc2ccccc12
Response given: 0.3

Challenge: # get_value(readout='RBA', item= O=C(c1ccccc1)c1c(-c2ccc(O)cc2)oc2ccccc12 )
Response given: 0.12

---

Target: Estrogen receptor (Rattus norvegicus) (UniProt P06211+Q62986)
Experiment: Relative binding against estrogen receptor of rat uterine cytosol by [2-4-3H] estradiol.
Assay type: protein assay
Recorded RBA values for a group of compounds are listed next.
# output: bare number, implied unit %

input-smiles	result-unit	number
C/C(=C(/C(=O)c1ccc(OCCN2CCCC2)cc1)c1ccccc1)c1ccccc1	%	0.008

Challenge: Reported RBA, compound O=C(c1ccc(O)cc1)c1oc2cc(O)ccc2c1-c1ccc(O)cc1 : ____
Response given: 2.7

Challenge: Can you look up the measured RBA of COc1ccc2c(-c3ccc(OCCN4CCCC4)cc3)c(-c3ccccc3)oc2c1 for me?
Response given: 0.01

Challenge: Could you share which RBA value was measured for COc1ccc(-c2c(-c3ccccc3)oc3cc(O)ccc23)cc1 ?
Response given: 0.01

Challenge: I'd like to know its RBA. The compound in question is C/C(=C(\C(=O)c1ccc(O)cc1)c1ccccc1)c1ccccc1
Response given: 0.54

Challenge: Entry O=C(/C(=C/c1ccccc1)c1ccccc1)c1ccc(O)cc1 : reported RBA = ?
Response given: 1.8

---

Recorded RBA values for a group of compounds are listed next.
Target: Estrogen receptor (Rattus norvegicus) (UniProt P06211+Q62986)
Assay: Relative binding against estrogen receptor of rat uterine cytosol by [2-4-3H] estradiol.
Type: protein assay
Numeric only. Scale: %

See these solved cases before continuing.
input-smiles	result-unit	number
Oc1ccc(-c2c(-c3ccccc3)oc3cc(O)ccc23)cc1	%	1.6
O=C(c1ccc(OCCN2CCCC2)cc1)c1c(-c2ccccc2)oc2ccccc12	%	0.01

Query compound follows.
Challenge: Consider the compound shown here: Oc1ccc(-c2oc3cc(O)ccc3c2-c2ccc(O)cc2)cc1 What is its recorded RBA?
Response given: 7.8
